Target: biotinylated His-Avi-TEAD (194-411) (UniProt P28347)
Assay: SSM screen, enrichment after two rounds of sorting
readout_name: enrichment score

# binder, readout_name, value_observed
rows = [
    ("GSPDPYIERAKECCKKGDIQCCLRYFEESGDPNVMLICLFCP (designed binder) [E03P variant of SEQ ID NO: 1]", "enrichment score", -0.4),
]

[P] GSPDEYIERAKECCKKRDIQCCLRYFEESGDPNVMLICLFCP (designed binder) [G15R variant of SEQ ID NO: 1]
[Q] GSPDEYIERAKYCCKKGDIQCCLRYFEESGDPNVMLICLFCP (designed binder) [E10Y variant of SEQ ID NO: 1]
[R] GSPDEYIERAKECCKKHDIQCCLRYFEESGDPNVMLICLFCP (designed binder) [G15H variant of SEQ ID NO: 1]
[S] GSPDEYIEAAKECCKKGDIQCCLRYFEESGDPNVMLICLFCP (designed binder) [R07A variant of SEQ ID NO: 1]
[T] GSPDYYIERAKECCKKGDIQCCLRYFEESGDPNVMLICLFCP (designed binder) [E03Y variant of SEQ ID NO: 1]
Query: Sequence the entries by enrichment score, beginning with the highest number. Output spec: a listing of the labels in the requested order.
Result: R, P, S, T, Q
(R: 3.18, P: 0.91, S: 0.28, T: -0.36, Q: -5.61)
